Target: Collagen alpha-1(I) chain (Homo sapiens, UniProt P02452)
Sequence (P02452 whole entry): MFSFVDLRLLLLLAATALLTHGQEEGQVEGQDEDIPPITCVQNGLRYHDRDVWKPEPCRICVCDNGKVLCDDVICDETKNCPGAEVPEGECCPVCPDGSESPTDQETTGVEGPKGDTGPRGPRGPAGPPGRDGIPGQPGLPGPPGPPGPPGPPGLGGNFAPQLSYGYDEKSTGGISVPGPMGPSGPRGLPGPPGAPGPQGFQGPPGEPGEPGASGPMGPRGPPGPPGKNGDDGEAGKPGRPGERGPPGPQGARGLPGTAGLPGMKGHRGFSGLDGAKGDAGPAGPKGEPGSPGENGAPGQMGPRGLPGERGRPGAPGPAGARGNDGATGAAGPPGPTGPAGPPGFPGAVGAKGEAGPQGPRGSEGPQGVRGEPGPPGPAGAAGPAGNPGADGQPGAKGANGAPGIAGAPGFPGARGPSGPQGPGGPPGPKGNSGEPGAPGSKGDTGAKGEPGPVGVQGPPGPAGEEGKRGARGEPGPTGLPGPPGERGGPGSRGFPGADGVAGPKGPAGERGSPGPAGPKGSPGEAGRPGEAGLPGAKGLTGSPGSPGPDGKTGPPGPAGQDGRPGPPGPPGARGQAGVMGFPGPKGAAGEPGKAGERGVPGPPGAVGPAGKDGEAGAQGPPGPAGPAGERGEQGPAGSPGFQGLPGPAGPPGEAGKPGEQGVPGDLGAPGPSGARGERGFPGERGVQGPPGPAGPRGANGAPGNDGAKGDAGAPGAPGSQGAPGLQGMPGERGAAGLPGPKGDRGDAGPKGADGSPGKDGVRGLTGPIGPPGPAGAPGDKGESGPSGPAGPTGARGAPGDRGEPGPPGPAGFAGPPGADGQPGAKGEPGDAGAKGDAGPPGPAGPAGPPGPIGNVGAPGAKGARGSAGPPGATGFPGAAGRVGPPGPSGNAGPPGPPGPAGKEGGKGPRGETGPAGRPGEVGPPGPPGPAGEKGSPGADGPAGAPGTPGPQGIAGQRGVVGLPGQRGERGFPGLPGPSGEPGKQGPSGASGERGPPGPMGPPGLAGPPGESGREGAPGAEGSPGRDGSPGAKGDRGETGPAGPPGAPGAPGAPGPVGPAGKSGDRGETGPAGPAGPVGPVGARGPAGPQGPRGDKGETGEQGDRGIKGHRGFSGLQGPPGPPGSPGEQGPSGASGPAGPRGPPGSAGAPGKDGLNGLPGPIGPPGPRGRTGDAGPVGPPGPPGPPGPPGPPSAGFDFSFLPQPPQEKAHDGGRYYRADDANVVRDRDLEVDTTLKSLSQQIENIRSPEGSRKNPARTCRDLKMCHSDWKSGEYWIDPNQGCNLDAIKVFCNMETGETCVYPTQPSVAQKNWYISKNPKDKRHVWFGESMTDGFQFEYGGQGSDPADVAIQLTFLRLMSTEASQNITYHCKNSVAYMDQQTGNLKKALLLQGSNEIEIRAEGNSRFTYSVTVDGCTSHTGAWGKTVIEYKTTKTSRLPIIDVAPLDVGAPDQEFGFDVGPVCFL
Test: Inhibition of COL1A1 (unknown origin) expressed in human LX2 cells at 40 uM measured for 24 hrs relative to control
Type: cell-based
quantity-kind: inhibition (%)
Give bare numbers, in %.

given-smiles	unit	inhibition
CCCC[C@@H]1[C@H]2CCCN3CCC[C@@H](CN1CC(=O)Nc1ccccn1)[C@@H]23	%	30.1
CCCC[C@@H]1[C@H]2CCCN3CCC[C@@H](CN1C(=O)Nc1c(C)cc(C)cc1C)[C@@H]23	%	90.8
CCCC[C@@H]1[C@H]2CCCN3CCC[C@@H](CN1C(=O)Nc1ccccc1OC)[C@@H]23	%	12.1

Next compound, please.
Task: Find the recorded inhibition belonging to "CCCC[C@@H]1[C@H]2CCCN3CCC[C@@H](CN1CC(=O)Nc1ccc(Cl)cc1Cl)[C@@H]23" and report it.
Output: 93
